pIC50 (DPP4) values for the compounds below.
# experimental-system: Recombinant human DPP4 (Homo sapiens)
# Construct: purchased R&D systems 9168-SE
# Sequence (P27487 whole entry): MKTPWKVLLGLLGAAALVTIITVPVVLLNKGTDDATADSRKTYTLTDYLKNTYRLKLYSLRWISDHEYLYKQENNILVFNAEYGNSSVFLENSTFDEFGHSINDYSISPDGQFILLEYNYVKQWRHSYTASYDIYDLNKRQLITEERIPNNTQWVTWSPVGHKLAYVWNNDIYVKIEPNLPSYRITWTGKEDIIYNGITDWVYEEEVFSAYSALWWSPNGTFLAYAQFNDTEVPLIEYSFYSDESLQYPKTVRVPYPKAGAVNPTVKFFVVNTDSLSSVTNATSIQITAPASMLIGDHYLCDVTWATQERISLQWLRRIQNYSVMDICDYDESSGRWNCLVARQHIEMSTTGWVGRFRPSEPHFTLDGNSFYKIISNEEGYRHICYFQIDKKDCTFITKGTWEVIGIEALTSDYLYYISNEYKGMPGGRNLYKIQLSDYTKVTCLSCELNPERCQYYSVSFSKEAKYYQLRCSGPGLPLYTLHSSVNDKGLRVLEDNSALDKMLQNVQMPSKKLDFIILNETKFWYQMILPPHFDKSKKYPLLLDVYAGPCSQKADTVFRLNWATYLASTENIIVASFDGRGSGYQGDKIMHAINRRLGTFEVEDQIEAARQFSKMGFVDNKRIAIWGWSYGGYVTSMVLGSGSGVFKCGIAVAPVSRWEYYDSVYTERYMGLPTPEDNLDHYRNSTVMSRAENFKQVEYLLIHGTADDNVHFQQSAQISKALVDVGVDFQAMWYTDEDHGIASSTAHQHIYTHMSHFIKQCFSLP
# test-name: DPP4 protease activity assay
# Type: biochemical
# stated-conditions: 20 µM GP-AMC substrate

For N#C[C@@H]1CC(F)(F)CN1C(=O)CNC(=O)c1ccnc2ccc(OCCCN3CCN(C(=O)CN4CCN(CC(=O)O)CCN(CC(=O)O)CCN(CC(=O)O)CC4)CC3)cc12 [drawing 287] on Recombinant human DPP4 (Homo sapiens), measured pIC50 (DPP4) was <6

For N#C[C@@H]1CC(F)(F)CN1C(=O)CNC(=O)c1cc[n+]([O-])c2ccc(-c3ccc(S(=O)(=O)CCCNC(=O)CN4CCN(CC(=O)O)CCN(CC(=O)O)CCN(CC(=O)O)CC4)cc3)cc12 on Recombinant human DPP4 (Homo sapiens), measured pIC50 (DPP4) was 7

For N#C[C@@H]1CCCN1C(=O)CNC(=O)c1cc[n+]([O-])c2ccccc12 on Recombinant human DPP4 (Homo sapiens), measured pIC50 (DPP4) was <6

Turning to the following compound.
For N#C[C@@H]1CC(F)(F)CN1C(=O)CNC(=O)c1ccnc2ccc(-c3ccc(C(=O)NCCN4CCN(C(=O)CN5CCN(CC(=O)O)CCN(CC(=O)O)CCN(CC(=O)O)CC5)CC4)cc3)cc12 on Recombinant human DPP4 (Homo sapiens), measured pIC50 (DPP4) was <6
